From: PubChem BioAssay (NCI)

tested on: HT29 colon; experiment: NCI tumour cell line growth inhibition, 48 h
Reported TGI is given for each of the following molecules.

> print(dat)
                                   molecule  meas.value
1  COC(=O)C(CC(=O)c1c[nH]c2ccccc12)c1c[nH]c2ccccc12 (stereo not drawn)     31.2 µM

Turning to the following molecule.
Data request: Give the measured TGI of O=c1c2cc(Br)ccc2ncn1COCc1ccccc1 .
Data returned: > 1 µM

###

tested on: HOP-92 NSCLC; assay: NCI tumour cell line growth inhibition, 48 h
quantity: TGI

Recorded results for 3 compounds are shown here.
compound	TGI
COC(=O)[C@](C)(Cc1ccccc1)NC(=O)[C@@H](C)N1[C@@H](c2ccccc2)COC1(C)C	> 100 µM
O=C(O)Cc1ccccc1CCc1ccccc1Cl	> 100 µM
Cc1cn(CCOCCOC(=O)NC(CCCNC(N)=O)C(=O)O)c(=O)[nH]c1=O (configuration not stated)	> 100 µM

Data request: Entry under review: COC(=O)c1ccc(C(=O)OC)c2nc3cc(C)ccc3nc12 . Reported TGI?
Data returned: > 100 µM

Data request: Look up TGI for this compound: CC(C(=O)O)c1ccc(-c2ccccc2)c(F)c1 (configuration not stated)
Data returned: > 100 µM

Data request: # lookup: TGI of CC1=CC[C@](C)(O)[C@@]2(C)CC[C@H]3C(=C(C)C)C(=O)C[C@]3(C)C[C@H]12
Data returned: > 50 µM

Data request: Please report the recorded TGI for COc1cc(C)cc2c(-c3c(O)cc(O)c4c3C[C@H](C)N[C@H]4C)cc(-c3cc(-c4c(O)cc(O)c5c4C[C@H](C)N[C@H]5C)c4cc(C)cc(OC)c4c3O)c(O)c12 .
Data returned: > 100 µM

Data request: For the compound CCn1c(=O)c2c3ccc(OC(C)=O)cc3[nH]c2c2ccc(OC(C)=O)cc21 , what TGI is on record?
Data returned: > 100 µM

Data request: What value of measured TGI is listed for CC(=O)c1cccc(-c2cccc(-c3ccn(CCN4CCOCC4)n3)c2)c1 ?
Data returned: > 20 µM

Data request: # input compound: CCOC(=O)c1c(N)sc2c1C(C(=O)OCC)CCC2 (configuration not stated) ; wanted: its TGI
Data returned: > 100 µM

Data request: Given CC1(C)C=[N+]([O-])C(C)(C)N1O , state its recorded TGI.
Data returned: > 10 µM

Data request: GET /values?readout=TGI&item= COC(=O)[C@@]1(C)CCC[C@]2(C(=O)O)C3Cc4occc4[C@H](C)[C@@H]3CCC21 (some centres not stated)
Data returned: 81 µM

Data request: Which TGI is reported for this compound? COC1(OC)C=CC(=O)C=C1
Data returned: 11 µM

Data request: For O=c1cc(-c2ccccn2)[nH]c2cc(F)ccc12 , what is its reported TGI?
Data returned: > 100 µM

Data request: Field request: TGI | item: C[PH+](c1nc2ccccc2nc1[PH+](C)C(C)(C)C)C(C)(C)C.C[PH+](c1nc2ccccc2nc1[PH+](C)C(C)(C)C)C(C)(C)C.[Au+].[Cl-] (configuration not stated)
Data returned: 0.0681 µM

Data request: Item COC(=O)[C@@H]1C=C[C@H](NC(C)=O)C1 has what recorded TGI?
Data returned: > 100 µM

Data request: So what's the measured TGI for this one? COC(=O)c1cc(-c2ccc(OC)cc2)[nH]c1N/N=C/c1c(Cl)cccc1Cl
Data returned: 2.5 µM

Data request: # input compound: CS(=O)(=O)[O-].CS(=O)(=O)[O-].NC1CCCCC1N.[Pt+4] (configuration not stated) ; wanted: its TGI
Data returned: > 100 µM

Data request: Field request: TGI | item: O=C(CSc1nc(-c2ccccc2)c(-c2ccccc2)[nH]1)NNC(=S)Nc1ccccc1
Data returned: > 100 µM

Data request: Need TGI, item COC(=O)C(=O)C(C(=O)C(N)=O)c1nc2ccc(C(=O)c3ccccc3)cc2[nH]c1=O (configuration not stated)
Data returned: > 100 µM

Data request: Sample COc1ccccc1NC(=O)C1=C(C)NC(C)=C(C(=O)Nc2ccccc2OC)C1c1ccc(N(C)C)cc1 — what was its TGI?
Data returned: 38.6 µM

Data request: Fill blank: measured TGI of the compound COC(=O)C1Cc2c([nH]c3ccccc23)C(c2ccccc2O)N1Cc1ccccc1 (configuration not stated) is ____.
Data returned: 43.5 µM
